Could you please report measured residual activity for the items listed next?
- tgt: Tyrosine-protein kinase Blk (Homo sapiens) (UniProt P51451)
- Sequence (P51451 2-505 limits assumed): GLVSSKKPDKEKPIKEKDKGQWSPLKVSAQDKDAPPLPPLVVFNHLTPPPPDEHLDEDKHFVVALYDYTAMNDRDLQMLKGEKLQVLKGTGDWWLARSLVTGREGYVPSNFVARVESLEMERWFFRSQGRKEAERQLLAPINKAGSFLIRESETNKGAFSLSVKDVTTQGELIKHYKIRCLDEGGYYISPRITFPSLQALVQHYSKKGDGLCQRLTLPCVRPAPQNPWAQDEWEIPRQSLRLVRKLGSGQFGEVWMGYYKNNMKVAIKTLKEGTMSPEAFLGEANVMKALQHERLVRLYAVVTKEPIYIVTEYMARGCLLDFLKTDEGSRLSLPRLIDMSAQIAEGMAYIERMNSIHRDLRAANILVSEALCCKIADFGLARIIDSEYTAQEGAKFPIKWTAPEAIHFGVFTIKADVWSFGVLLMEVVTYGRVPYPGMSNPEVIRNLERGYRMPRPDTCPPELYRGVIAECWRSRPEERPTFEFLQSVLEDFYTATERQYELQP
- setupConditions: at 10 µM
Answers are plain numbers, in %.

Solved cases (5 shown):
structureSmilesString	assayValue
CCOc1cc2ncnc(Nc3cccc(Br)c3)c2cc1OCC	3
Cc1ccc(NC2=CC(=O)c3sc(C)nc3C2=O)cc1	96
O=C1NC(=O)c2c1c1c3ccccc3[nH]c1c1[nH]c3cc(Br)ccc3c21	85
Cn1cnc2cc3c(Nc4cccc(Br)c4)ncnc3cc21	18
O=C(Nc1cccc(Nc2nccc(Nc3cccc(C(F)(F)F)c3)n2)c1)C1CC1	57

// each listed compound needs a value for residual activity
1. N#Cc1cnc2cnc(NCc3cccnc3)cc2c1Nc1ccc(F)c(Cl)c1
2. COc1ccc(C(=O)Nc2sc3c(c2C(N)=O)CCCC3)cc1OC
3. O=[N+]([O-])c1ccc(-c2nc(-c3ccc(F)cc3)c(-c3ccncc3)[nH]2)cc1
4. Cc1nc2cc3nc(-c4cccs4)cnc3cc2n1C
5. O=C1NC(=O)/C(=C\c2ccc3nccnc3c2)S1
6. c1ccc2c(-c3ccncc3)c[nH]c2c1

Output:
1: 3; 2: 94; 3: 98; 4: 48; 5: 79; 6: 107

----------
Please go through the items and note down their residual activity.
- tgt: Tyrosine-protein kinase ZAP-70 (Homo sapiens) (UniProt P43403)
- Sequence (P43403 whole entry): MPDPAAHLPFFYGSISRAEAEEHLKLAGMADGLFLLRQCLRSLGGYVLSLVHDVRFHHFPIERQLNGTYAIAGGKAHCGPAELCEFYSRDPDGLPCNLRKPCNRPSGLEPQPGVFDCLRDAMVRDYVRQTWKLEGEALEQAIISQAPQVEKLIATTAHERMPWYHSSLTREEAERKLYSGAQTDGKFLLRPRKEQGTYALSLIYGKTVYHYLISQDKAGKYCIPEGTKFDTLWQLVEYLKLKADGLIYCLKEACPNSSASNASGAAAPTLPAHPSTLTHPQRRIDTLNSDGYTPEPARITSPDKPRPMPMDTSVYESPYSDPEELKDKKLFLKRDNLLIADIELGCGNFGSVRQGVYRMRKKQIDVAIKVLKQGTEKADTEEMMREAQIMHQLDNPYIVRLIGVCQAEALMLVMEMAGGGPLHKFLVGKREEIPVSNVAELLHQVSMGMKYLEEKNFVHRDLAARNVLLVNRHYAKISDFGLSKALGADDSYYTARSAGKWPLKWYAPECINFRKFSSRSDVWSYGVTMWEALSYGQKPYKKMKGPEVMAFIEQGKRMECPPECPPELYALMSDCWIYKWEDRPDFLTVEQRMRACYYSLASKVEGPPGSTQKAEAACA
- setupConditions: at 1 µM
One number for each entry, in %.

Record residual activity per entry; entries follow.
1. NC(=O)c1ccc2[nH]c(-c3ccc(Oc4ccc(Cl)cc4)cc3)nc2c1
2. O=C1NC(=O)c2c1c1c3ccccc3[nH]c1c1[nH]c3cc(Br)ccc3c21
3. CC(C)n1cnc2/c(=N/c3cccc(Cl)c3)nc(NCCO)[nH]c21
4. CC[n+]1c(/C=C/N(C)c2ccccc2)n(-c2ccccc2)c2ccc(-c3nc4ccccc4s3)cc21
5. O=C(Nc1cccc(Nc2nccc(Nc3cccc(C(F)(F)F)c3)n2)c1)C1CC1
6. COc1cc2ncnc(N3CCN(C(=O)Nc4ccc(Oc5ccccc5)cc4)CC3)c2cc1OC
7. N#C/C(=C(\N)Sc1ccc(N)cc1)c1ccccc1C(F)(F)F
8. O=C1NC(=O)c2cc(Nc3ccc(F)cc3)c(Nc3ccc(F)cc3)cc21

Output:
1. 95
2. 95
3. 98
4. 117
5. 113
6. 102
7. 100
8. 113

Batch: residual activity for all items listed.
1. O=C1NC(=O)/C(=C\c2ccc3nccnc3c2)S1
2. COc1cc2ncnc(Nc3ccc(O)c(Br)c3)c2cc1OC
3. O=C1Nc2cc(Br)ccc2/C1=C1/Nc2ccccc2/C1=N\O

Output:
[109, 144, 97]

For every record below, what is its residual activity?
1. COc1ccc(OC)c2c(=S)c3ccccc3[nH]c12
2. Cn1cnc2cc3c(Nc4cccc(Br)c4)ncnc3cc21

Output:
1: 90; 2: 87

// input: 8 compounds below; output: residual activity for each
1. CC#CC(=O)Nc1cc2c(Nc3ccc(F)c(Cl)c3)ncnc2cn1
2. Ic1cccc(CSc2nnc(-c3ccncc3)o2)c1
3. O=C1c2ccccc2-[n+]2ccc3c([nH]c4ccccc43)c21
4. Cc1nc(-c2ccccc2)c(-c2ccncc2)o1
5. COc1cccc(-c2cc(=O)c3ccccc3o2)c1N
6. COc1cc2ncnc(Nc3ccc(Oc4ccccc4)cc3)c2cc1OC
7. CCC(=O)Nc1ccc2ncnc(Nc3cccc(Br)c3)c2c1
8. O=[N+]([O-])c1ccc(-c2nc(-c3ccc(F)cc3)c(-c3ccncc3)[nH]2)cc1

Output:
103
101
128
127
137
114
86
122

Answer for every listed entry: what is its residual activity? The entries follow.
1. Oc1ccc(-c2nc(-c3ccc(F)cc3)c(-c3ccncc3)[nH]2)cc1
2. O=c1c2ccccc2[nH]c(=S)n1CCN1CCC(=C(c2ccc(F)cc2)c2ccc(F)cc2)CC1
3. CO[C@H]1[C@@H](OC)C[C@H](C)[C@@H](OC)C2=CC(=O)C=C(NC(=O)/C(C)=C/C=C/[C@H](OC)[C@@H](OC(N)=O)/C(C)=C/[C@@H]1C)C2=O
4. Cc1cc(Nc2nc(-c3ccccc3)nc3ccccc23)n[nH]1
5. CN(C)c1ccc(/C=C2\C(=O)Nc3ccccc32)cc1

Output:
1: 117; 2: 101; 3: 98; 4: 114; 5: 121

For each listed entry, give its residual activity.
1. CO[C@@H]1[C@H](N(C)C(=O)c2ccccc2)C[C@H]2O[C@]1(C)n1c3ccccc3c3c4c(c5c6ccccc6n2c5c31)C(=O)NC4
2. O=C1Nc2ccccc2/C1=C1/Nc2ccccc2/C1=N\OCCC(O)CO (stereo not drawn)
3. CC(C)n1cnc2c(NCc3ccccc3)nc(NCCCO)nc21

Output:
70
97
114

For each of the items listed, what is its residual activity?
1. O=C1NC(=O)/C(=C/c2ccc3c(c2)OC(F)(F)O3)S1
2. CN(C)CCCn1cc(C2=C(c3c[nH]c4ccccc34)C(=O)NC2=O)c2ccccc21
3. Cc1nc2cc3nc(-c4cccs4)cnc3cc2n1C
4. CCN(CC)CCCCN1c2ccccc2Oc2ccc(Cl)cc21
5. CCOc1cc2ncnc(Nc3cccc(Br)c3)c2cc1OCC
6. Nc1n[nH]c2nnc(-c3c(-c4ccccc4)nn4ccccc34)cc12
7. O=c1cc(-c2cccc3c2Sc2ccccc2S3)oc(N2CCOCC2)c1

Output:
[116, 133, 135, 113, 122, 100, 113]

Dear reader, for each entry below, please note its residual activity.
1. CNc1cc2c(Nc3cccc(Br)c3)ncnc2cn1
2. Oc1ccc(Nc2nc(-c3ccc(Cl)cc3)cs2)cc1

Output:
1. 99
2. 115
